- target_system: Cruzipain (Trypanosoma cruzi) (UniProt P25779)
- Sequence (P25779 123-467 limits assumed): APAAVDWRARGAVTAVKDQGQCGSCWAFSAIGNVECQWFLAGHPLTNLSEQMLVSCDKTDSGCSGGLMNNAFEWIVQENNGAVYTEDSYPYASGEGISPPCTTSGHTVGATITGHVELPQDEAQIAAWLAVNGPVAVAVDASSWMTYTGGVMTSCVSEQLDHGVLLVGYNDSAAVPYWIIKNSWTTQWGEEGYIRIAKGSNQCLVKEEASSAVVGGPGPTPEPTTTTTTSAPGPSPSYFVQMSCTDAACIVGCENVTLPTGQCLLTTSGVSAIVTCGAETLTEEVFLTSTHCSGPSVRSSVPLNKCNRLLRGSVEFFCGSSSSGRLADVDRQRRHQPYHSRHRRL
- method_description: Inhibition of Trypanosoma cruzi Tulahuen 2 cruzipain at 50 uM
inhibition of 20% or higher: Met. Under 20%: Not met.

Hi team, for `[O-][n+]1onc2cc(/C=C/Sc3ccccc3)ccc21` , is the recorded inhibition at or above 20%?
Met

Hi team, for [O-][n+]1onc2cc(/C=C\[S+]([O-])c3ccccc3)ccc21 (configuration not stated) , is the recorded inhibition at or above 20%?
Not met

Hi team, for `O=S(=O)(/C=C/c1ccc2c(c1)no[n+]2[O-])c1ccccc1` , is the recorded inhibition at or above 20%?
Met

Hi team, for `[O-][n+]1onc2cc(/C=C/c3ccccc3)ccc21` , is the recorded inhibition at or above 20%?
Met

Hi team, for `O=S(=O)(/C=C\c1ccc2c(c1)no[n+]2[O-])c1ccccc1` , is the recorded inhibition at or above 20%?
Met

Hi team, for [O-][n+]1onc2cc(/C=C/[S+]([O-])c3ccccc3)ccc21 (configuration not stated) , is the recorded inhibition at or above 20%?
Met

* * *

Field: pIC50. Provide a value for each of the compounds that follow.
- Test system: Trypanosoma cruzi
- method_description: Antitrypanosomal activity against Trypanosoma cruzi Tulahuen 2
- Type: functional, organism-based
Quick note: pIC50 values are minus log10 of concentrations in mol/L.

Provide one value: measured pIC50 of `O=S(=O)(/C=C\c1ccc2c(c1)no[n+]2[O-])c1ccccc1`
5.96

Provide one value: measured pIC50 of CC(=O)N1CCN(c2ccc(OCC3COC(Cn4ccnc4)(c4ccc(Cl)cc4Cl)O3)cc2)CC1 (stereo not drawn)
5.00

Provide one value: measured pIC50 of `[O-][n+]1onc2cc(/C=C/c3ccccc3)ccc21`
4.97

Provide one value: measured pIC50 of `CN(C/C=C/C#CC(C)(C)C)Cc1cccc2ccccc12`
4.77

Provide one value: measured pIC50 of `O=S(=O)(/C=C/c1ccc2c(c1)no[n+]2[O-])c1ccccc1`
5.80

Provide one value: measured pIC50 of `C=CS(=O)(=O)Cc1ccc2c(c1)no[n+]2[O-]`
4.84

Provide one value: measured pIC50 of `O=C(Cn1ccnc1[N+](=O)[O-])NCc1ccccc1`
5.13

* * *

- Test system: Trypanosoma cruzi
- method_description: Antitrypanosomal activity against Trypanosoma cruzi Y
- Type: functional, organism-based
Mark Met for IC50 under 6 µM, Not met if at or over.

Determine whether this compound shows IC50 lower than 6 µM (ties excluded): `C=CS(=O)(=O)Cc1ccc2c(c1)no[n+]2[O-]`
Not met

Determine whether this compound shows IC50 lower than 6 µM (ties excluded): `O=S(=O)(/C=C\c1ccc2c(c1)no[n+]2[O-])c1ccccc1`
Met

Determine whether this compound shows IC50 lower than 6 µM (ties excluded): CC1CS(=O)(=O)CCN1/N=C/c1ccc([N+](=O)[O-])o1 (stereo unspecified) [NIFURTIMOX]
Not met

Determine whether this compound shows IC50 lower than 6 µM (ties excluded): `[O-][n+]1onc2cc(/C=C/c3ccccc3)ccc21`
Not met

Determine whether this compound shows IC50 lower than 6 µM (ties excluded): `[O-][n+]1onc2cc(/C=C/Sc3ccccc3)ccc21`
Not met

Determine whether this compound shows IC50 lower than 6 µM (ties excluded): CN(C/C=C/C#CC(C)(C)C)Cc1cccc2ccccc12 [TERBINAFINE]
Not met

* * *

- method_description: Selectivity index, ratio of IC50 for human THP1 cells to IC50 for Trypanosoma cruzi CL Brener
- Format: functional, THP-1
readout_kind: Ratio IC50
A bare number is all that is needed in reply.

Provide one value: measured Ratio IC50 of CC(=O)N1CCN(c2ccc(OCC3COC(Cn4ccnc4)(c4ccc(Cl)cc4Cl)O3)cc2)CC1 (centres undefined) [KETOCONAZOLE]
8.8

Provide one value: measured Ratio IC50 of `O=S(=O)(/C=C\c1ccc2c(c1)no[n+]2[O-])c1ccccc1`
17.9

Provide one value: measured Ratio IC50 of [O-][n+]1onc2cc(/C=C\[S+]([O-])c3ccccc3)ccc21 (centres undefined)
21

Provide one value: measured Ratio IC50 of [O-][n+]1onc2cc(/C=C/[S+]([O-])c3ccccc3)ccc21 (centres undefined)
8.2

Provide one value: measured Ratio IC50 of `O=S(=O)(/C=C/c1ccc2c(c1)no[n+]2[O-])c1ccccc1`
53.8

Provide one value: measured Ratio IC50 of `[O-][n+]1onc2cc(/C=C/c3ccccc3)ccc21`
14.7

Provide one value: measured Ratio IC50 of `C=CS(=O)(=O)Cc1ccc2c(c1)no[n+]2[O-]`
30.1

Provide one value: measured Ratio IC50 of CN(C/C=C/C#CC(C)(C)C)Cc1cccc2ccccc12 [TERBINAFINE]
7.8

Provide one value: measured Ratio IC50 of `[O-][n+]1onc2cc(/C=C\c3ccccc3)ccc21`
4

* * *

- target_system: Cruzipain (Trypanosoma cruzi, UniProt P25779)
- Sequence (P25779 whole entry): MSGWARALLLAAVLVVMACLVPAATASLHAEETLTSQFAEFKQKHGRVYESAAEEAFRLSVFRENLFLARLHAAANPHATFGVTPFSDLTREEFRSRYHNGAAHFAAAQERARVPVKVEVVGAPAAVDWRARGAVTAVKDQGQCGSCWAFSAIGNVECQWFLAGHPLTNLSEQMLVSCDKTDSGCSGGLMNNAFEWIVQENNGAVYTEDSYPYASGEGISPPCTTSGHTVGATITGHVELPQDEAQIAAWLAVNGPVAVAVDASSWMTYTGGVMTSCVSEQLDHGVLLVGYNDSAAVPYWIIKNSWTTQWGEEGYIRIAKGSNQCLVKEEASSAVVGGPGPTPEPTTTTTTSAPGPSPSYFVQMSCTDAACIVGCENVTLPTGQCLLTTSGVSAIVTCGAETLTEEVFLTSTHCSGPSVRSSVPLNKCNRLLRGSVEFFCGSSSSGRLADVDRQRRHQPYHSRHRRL
readout_kind: IC50

Provide one value: measured IC50 of `O=S(=O)(/C=C/c1ccc2c(c1)no[n+]2[O-])c1ccccc1`
> 50 µM

* * *

- Tested on: Trypanosoma cruzi
- method_description: Antitrypanosomal activity against Trypanosoma cruzi Y
- Type: functional, organism-based
readout_kind: pIC50
Quick note: pIC50 values are minus log10 of concentrations in mol/L.

Provide one value: measured pIC50 of O=C(Cn1ccnc1[N+](=O)[O-])NCc1ccccc1 [BENZNIDAZOLE]
5.42

Provide one value: measured pIC50 of `O=S(=O)(/C=C/c1ccc2c(c1)no[n+]2[O-])c1ccccc1`
5.30

Provide one value: measured pIC50 of [O-][n+]1onc2cc(/C=C/[S+]([O-])c3ccccc3)ccc21 (configuration not stated)
5.06

Provide one value: measured pIC50 of CC(=O)N1CCN(c2ccc(OCC3COC(Cn4ccnc4)(c4ccc(Cl)cc4Cl)O3)cc2)CC1 (configuration not stated) [KETOCONAZOLE]
5.01

Provide one value: measured pIC50 of [O-][n+]1onc2cc(/C=C\[S+]([O-])c3ccccc3)ccc21 (configuration not stated)
5.82

Provide one value: measured pIC50 of `[O-][n+]1onc2cc(/C=C\c3ccccc3)ccc21`
5.05

Provide one value: measured pIC50 of `[O-][n+]1onc2cc(/C=C\Sc3ccccc3)ccc21`
5.00

* * *

- target_system: Cruzipain (Trypanosoma cruzi) (UniProt P25779)
- method_description: Inhibition of Trypanosoma cruzi Tulahuen 2 cruzipain at 100 uM
readout_kind: inhibition (%)
Numbers only here, please. The scale is %.

Provide one value: measured inhibition of `O=S(=O)(/C=C/c1ccc2c(c1)no[n+]2[O-])c1ccccc1`
0

Provide one value: measured inhibition of [O-][n+]1onc2cc(/C=C/[S+]([O-])c3ccccc3)ccc21 (stereo unspecified)
12

Provide one value: measured inhibition of `O=S(=O)(/C=C\c1ccc2c(c1)no[n+]2[O-])c1ccccc1`
19

Provide one value: measured inhibition of `[O-][n+]1onc2cc(/C=C/c3ccccc3)ccc21`
22

Provide one value: measured inhibition of `[O-][n+]1onc2cc(/C=C\c3ccccc3)ccc21`
44

Provide one value: measured inhibition of [O-][n+]1onc2cc(/C=C\[S+]([O-])c3ccccc3)ccc21 (stereo unspecified)
3

* * *

Field: log10(IC50). Provide a value for each of the molecules that follow.
- Tested on: Trypanosoma cruzi
- method_description: Antitrypanosomal activity against Trypanosoma cruzi Tulahuen 2
- Format: functional, organism-based
Values are log10 of IC50 in µM.

Please look at [O-][n+]1onc2cc(/C=C/[S+]([O-])c3ccccc3)ccc21 (stereo unspecified) and tell me its recorded log10(IC50) on Trypanosoma cruzi.
0.41

Please look at `[O-][n+]1onc2cc(/C=C\Sc3ccccc3)ccc21` and tell me its recorded log10(IC50) on Trypanosoma cruzi.
0.58

Please look at [O-][n+]1onc2cc(/C=C\[S+]([O-])c3ccccc3)ccc21 (stereo unspecified) and tell me its recorded log10(IC50) on Trypanosoma cruzi.
-0.15

Please look at `[O-][n+]1onc2cc(/C=C/Sc3ccccc3)ccc21` and tell me its recorded log10(IC50) on Trypanosoma cruzi.
0.41

Please look at CC1CS(=O)(=O)CCN1/N=C/c1ccc([N+](=O)[O-])o1 (stereo unspecified) [NIFURTIMOX] and tell me its recorded log10(IC50) on Trypanosoma cruzi.
0.89

Please look at `[O-][n+]1onc2cc(/C=C\c3ccccc3)ccc21` and tell me its recorded log10(IC50) on Trypanosoma cruzi.
0.85

Values were extracted from ChEMBL document CHEMBL1138265.
